Please respond with reported percent of parent for every item in the list.
B1: his6-cortactin, wild type (purified) [not stated] / GST-GluA2 C-terminal tail [not stated] (parent complex)
chain 1: not shown
chain 2: EFCYKSRAEAKRMKVAKNPQNINPSSSQNSQNFATYKEGYNVYGIESVKI

# Variants of: B1
# EXPERIMENTAL_DETAILS: GST pulldown, Western blot quantification; Input is 0.2% of offered protein; n = 3-6; read off a plot

Fill in percent of parent for record chain 2 K14A, chain 2 V15A
~37

Look up and report measured percent of parent for this entry: chain 2 K11A
~22

Tell us which percent of parent value is on record for chain 2 K17A, chain 2 N18A
~76

Please supply the value of reported percent of parent for the item chain 2 P19A, chain 2 Q20A
~83

Continue with the variant presented below.
Report measured percent of parent; entry is chain 2 R12A, chain 2 M13A
~55
